Provenance of the data: patent US10294246B2

// pIC50 collected for human constitutive proteasome (Beta5) (Homo sapiens (Human))
pIC50: −log10 of the molar value.
recordedEndpoint: pIC50

molecule=COc1ccc(CC(=O)N[C@@H](Cc2coc3ccccc23)B(O)O)c(OC)c1OC testedtarget="human constitutive proteasome (Beta5) (Homo sapiens (Human))" reported="6.30 to 7.30"
molecule=O=C(Cc1ccccc1)N[C@@H](Cc1coc2c(Cl)cccc12)B(O)O testedtarget="human constitutive proteasome (Beta5) (Homo sapiens (Human))" reported="5.30 to 6.30"
molecule=CC(=O)Nc1ccc(CC(=O)N[C@@H](Cc2ccc(C)cc2)B(O)O)cc1 testedtarget="human constitutive proteasome (Beta5) (Homo sapiens (Human))" reported="< 5.30"
molecule="COc1ccc(CCC(=O)N[C@H](CC2COc3c(C)cccc32)B(O)O)nc1 (some centres unmarked)" testedtarget="human constitutive proteasome (Beta5) (Homo sapiens (Human))" reported="< 5.30"
molecule=Cc1cccc2c(C[C@H](NC(=O)[C@@H](CO)c3ccccc3)B(O)O)coc12 testedtarget="human constitutive proteasome (Beta5) (Homo sapiens (Human))" reported="5.30 to 6.30"
molecule=CCOc1ccc(CC(=O)N[C@@H](Cc2coc3c(Cl)cccc23)B(O)O)nc1 testedtarget="human constitutive proteasome (Beta5) (Homo sapiens (Human))" reported="5.30 to 6.30"
molecule=O=C(Cc1ccc(N2CCCC2=O)cc1)N[C@@H](Cc1coc2ccccc12)B(O)O testedtarget="human constitutive proteasome (Beta5) (Homo sapiens (Human))" reported="6.30 to 7.30"
molecule=O=C(Cc1ccccc1)N[C@@H](Cc1coc2c(F)cccc12)B(O)O testedtarget="human constitutive proteasome (Beta5) (Homo sapiens (Human))" reported="6.30 to 7.30"

---

pIC50 values by entry
- testedTarget: human immunoproteasome (LMP7) (Homo sapiens (Human))
pIC50: −log10 of the molar value.
recordedEndpoint: pIC50

compound=O=C(Cc1ccc(OCCCO)cc1)N[C@@H](Cc1coc2ccccc12)B(O)O recordedendpoint=pIC50 reported="> 7.30"
compound=N#Cc1ccccc1CC(=O)N[C@@H](C[C@@H]1COc2c(Cl)cccc21)B(O)O recordedendpoint=pIC50 reported="> 7.30"
compound="COc1ccc(CCC(=O)N[C@@H](CC2COc3c2ccc(C)c3C)B(O)O)nc1 (stereo partly shown)" recordedendpoint=pIC50 reported="6.30 to 7.30"
compound="Cc1ccc2c(c1C)OCC2C[C@H](NC(=O)Cc1ccccc1)B(O)O (stereo partly shown)" recordedendpoint=pIC50 reported="> 7.30"
compound=O=C(COc1cccnc1)N[C@@H](Cc1coc2ccccc12)B(O)O recordedendpoint=pIC50 reported="> 7.30"
compound=O=C(Cc1ccc(OCCO)cc1)N[C@@H](Cc1coc2ccccc12)B(O)O recordedendpoint=pIC50 reported="> 7.30"
compound=N#Cc1ccccc1CC(=O)N[C@@H](C[C@H]1COc2c(Cl)cccc21)B(O)O recordedendpoint=pIC50 reported="6.30 to 7.30"
compound=CN(C)C(=O)c1ccccc1CC(=O)N[C@@H](Cc1coc2ccccc12)B(O)O recordedendpoint=pIC50 reported="> 7.30"
compound=O=C(Cc1ccc(N2CCCC2=O)cc1)N[C@@H](Cc1coc2ccccc12)B(O)O recordedendpoint=pIC50 reported="> 7.30"
compound=COc1cccc(OC)c1CC(=O)N[C@@H](Cc1ccc(C)cc1C)B(O)O recordedendpoint=pIC50 reported="6.30 to 7.30"
compound="COc1ccc(CC(C(=O)N[C@@H](Cc2coc3ccccc23)B(O)O)c2ccccc2)cc1 (stereo partly shown)" recordedendpoint=pIC50 reported="> 7.30"
compound=C[C@@H](C(=O)N[C@@H](C[C@@H]1COc2ccccc21)B(O)O)c1ccccc1C(=O)N(C)C recordedendpoint=pIC50 reported="6.30 to 7.30"
compound=O=C(Cc1cccnc1)N[C@@H](Cc1coc2ccccc12)B(O)O recordedendpoint=pIC50 reported="> 7.30"
compound=COc1ccc(CCC(=O)N[C@@H](Cc2coc3c(C)c(C)ccc23)B(O)O)nc1 recordedendpoint=pIC50 reported="> 7.30"
compound=Cc1cccc2c(C[C@@H](NC(=O)[C@H](CO)c3ccccc3)B(O)O)coc12 recordedendpoint=pIC50 reported="6.30 to 7.30"
compound=Cc1cccc2c(C[C@@H](NC(=O)[C@@H](CO)c3ccccc3)B(O)O)coc12 recordedendpoint=pIC50 reported="5.30 to 6.30"

---

Quick record: IC50, human immunoproteasome (LMP7) (Homo sapiens (Human)).
recordedEndpoint: IC50

compound="O=C(Cc1ccccc1OCCCO)N[C@H](Cc1coc2ccccc12)B(O)O [Compound No. 61]" recordedendpoint=IC50 reported="50 to 500 nM"
compound="COc1ccc(OC)c(CC(=O)N[C@@H](Cc2coc3c(C)cccc23)B(O)O)c1 [Compound No. 78]" recordedendpoint=IC50 reported="< 50 nM"
compound="COCc1cccc(CC(=O)N[C@@H](Cc2coc3ccccc23)B(O)O)c1 [Compound No. 49]" recordedendpoint=IC50 reported="< 50 nM"
compound="N#Cc1ccccc1CC(=O)N[C@@H](C[C@@H]1COc2ccccc21)B(O)O [Compound No. 105]" recordedendpoint=IC50 reported="< 50 nM"
compound="O=C(Cc1ccccc1-c1ccccc1)N[C@@H](Cc1coc2ccccc12)B(O)O [Compound No. 98]" recordedendpoint=IC50 reported="< 50 nM"
compound="Cc1ccc(C[C@H](NC(=O)C2(c3ccccc3)CC2)B(O)O)c(C)c1 [Compound No. 36]" recordedendpoint=IC50 reported="500 to 5000 nM"
compound="O=C(Cc1cnccn1)N[C@@H](Cc1coc2ccccc12)B(O)O [Compound No. 18]" recordedendpoint=IC50 reported="< 50 nM"
compound="O=C(CCOc1ccccc1)N[C@@H](C[C@@H]1COc2ccccc21)B(O)O [Compound No. 136]" recordedendpoint=IC50 reported="< 50 nM"
compound="Cc1cccc2c(C[C@H](NC(=O)[C@H](CO)c3ccccc3)B(O)O)coc12 [Compound No. 79]" recordedendpoint=IC50 reported="< 50 nM"

---

Here the recorded IC50 is given for each entry.
- testedTarget: human constitutive proteasome (Beta5) (Homo sapiens (Human), UniProt P28074)
recordedEndpoint: IC50

compound="O=C(Cc1ccc(OCCO)cc1)N[C@@H](Cc1coc2ccccc12)B(O)O [Compound No. 39]" reported="50 to 500 nM"
compound="O=C(N[C@H](Cc1coc2ccccc12)B(O)O)[C@@H](CO)c1ccccc1 [Compound No. 62]" reported="500 to 5000 nM"
compound="Cc1cccc2c1OC[C@H]2C[C@H](NC(=O)Cc1ccccc1C#N)B(O)O [Compound No. 130]" reported="> 5000 nM"
compound="COc1ccc(CC(=O)N[C@@H](Cc2coc3ccccc23)B(O)O)cc1 [Compound No. 10]" reported="50 to 500 nM"
compound="Cc1cccc2c(C[C@H](NC(=O)Cc3ccccc3C#N)B(O)O)coc12 [Compound No. 104]" reported="500 to 5000 nM"
compound="Cc1ccc(C[C@H](NC(=O)Cc2c(C)cccc2C)B(O)O)c(C)c1 [Compound No. 35]" reported="500 to 5000 nM"
compound="O=C(N[C@@H](Cc1coc2ccccc12)B(O)O)[C@H](CO)c1ccccc1 [Compound No. 57]" reported="500 to 5000 nM"
compound="O=C(N[C@@H](Cc1coc2ccccc12)B(O)O)[C@@H](CO)c1ccccc1 [Compound No. 59]" reported="50 to 500 nM"
compound="C[C@H](C(=O)N[C@@H](C[C@@H]1COc2ccccc21)B(O)O)c1ccccc1C(=O)N(C)C [Compound No. 107]" reported="> 5000 nM"
compound="COc1ccc(CC(=O)N[C@@H](C[C@@H]2COc3c(OC)cccc32)B(O)O)cc1 [Compound No. 120]" reported="500 to 5000 nM"
compound="C[C@@H](C(=O)N[C@@H](Cc1coc2ccccc12)B(O)O)c1ccccc1C(=O)N(C)C [Compound No. 97]" reported="> 5000 nM"
compound="Cc1ccc(C)c2c(C[C@H](NC(=O)Cc3ccccc3)B(O)O)coc12 [Compound No. 128]" reported="> 5000 nM"
compound="COc1ccc(CC(=O)N[C@@H](C[C@@H]2COc3ccccc32)B(O)O)cc1 [Compound No. 114]" reported="500 to 5000 nM"
compound="CCO[C@@H](C(=O)N[C@@H](CC1COc2ccccc21)B(O)O)c1ccccc1 (stereo partly shown) [Compound No. 111]" reported="> 5000 nM"
compound="O=C(Cc1ccccc1OC1CCOCC1)N[C@@H](Cc1coc2ccccc12)B(O)O [Compound No. 54]" reported="50 to 500 nM"
compound="COc1ccc(C(F)(F)C(=O)N[C@@H](Cc2coc3ccccc23)B(O)O)cc1 [Compound No. 51]" reported="500 to 5000 nM"

---

- testedTarget: human immunoproteasome (LMP7) (Homo sapiens (Human))
- assaySummary: Determination of LMP7 activity (fluorescence intensity assay, Suc-LLVY-AMC)
- Format: biochemical
- conditionDetails: purified human immunoproteasome 0.25 nM, Suc-LLVY-AMC 40 μM
- Procedure: Determination of LMP7 Activity: Measurement of LMP7 inhibition is performed in 384 well format based on fluorescence intensity assay. Purified human immunoproteasome (0.25 nM) and serial diluted compounds in DMSO (range of concentrations from 30 μM to […]) or controls are incubated for 20 minutes at 25° C. in assay buffer containing 50 mM Tris pH 7.4, 0.03% SDS, 1 mM EDTA and 1% DMSO. […]
recordedEndpoint: IC50

compound="N#Cc1ccc(CC(=O)N[C@@H](Cc2coc3ccccc23)B(O)O)cc1 [Compound No. 9]" reported="< 50 nM"
compound="O=C(Cc1c(Cl)cccc1Cl)N[C@@H](Cc1coc2ccccc12)B(O)O [Compound No. 25]" reported="< 50 nM"
compound="COc1ccc(OC)c(CC(=O)N[C@@H](Cc2coc3ccccc23)B(O)O)c1 [Compound No. 58]" reported="< 50 nM"
compound="COCC(=O)Nc1ccc(CC(=O)N[C@@H](Cc2ccc(C)cc2C)B(O)O)cc1 [Compound No. 47]" reported="50 to 500 nM"
compound="CO[C@@H](C(=O)N[C@@H](CC1COc2c(C)cccc21)B(O)O)c1ccccc1 (some centres unmarked) [Compound No. 93]" reported="< 50 nM"
compound="Cc1ccc(C[C@H](NC(=O)Cc2ccccc2)B(O)O)cc1 [Compound No. 14]" reported="50 to 500 nM"
compound="Cc1ccc(C[C@H](NC(=O)Cc2c(C)cccc2C)B(O)O)c(C)c1 [Compound No. 35]" reported="50 to 500 nM"
compound="CCNC(=O)c1ccccc1CC(=O)N[C@@H](Cc1coc2ccccc12)B(O)O [Compound No. 65]" reported="< 50 nM"
compound="COc1ccc(CC(=O)N[C@H](Cc2coc3c(C)cccc23)B(O)O)cc1 [Compound No. 81]" reported="50 to 500 nM"
compound="O=C(COc1ccccc1)N[C@@H](Cc1ccccc1)B(O)O [Compound No. 3]" reported="< 50 nM"
compound="O=C(COc1ncc(Cl)cc1Cl)N[C@@H](Cc1ccccc1)B(O)O [Compound No. 1]" reported="< 50 nM"
compound="O=C(N[C@@H](Cc1coc2ccccc12)B(O)O)[C@@H](CO)c1ccccc1 [Compound No. 59]" reported="< 50 nM"
compound="O=C(Cc1ccccn1)NC(Cc1coc2ccccc12)B(O)O (centres unmarked) [Compound No. 112]" reported="< 50 nM"
compound="COc1ccc(CC(=O)N[C@@H](Cc2cc3ccccc3o2)B(O)O)cc1 [Compound No. 108]" reported="< 50 nM"
compound="O=C(Cc1ncccc1C(=O)N1CCOCC1)N[C@@H](Cc1coc2ccccc12)B(O)O [Compound No. 119]" reported="< 50 nM"
compound="Cc1cccc2c1OCC2C[C@H](NC(=O)Cc1ccccc1C(=O)N(C)C)B(O)O (some centres unmarked) [Compound No. 100]" reported="50 to 500 nM"
compound="N#Cc1ccccc1CC(=O)N[C@@H](Cc1coc2ccccc12)B(O)O [Compound No. 90]" reported="< 50 nM"
